# ASSAY_TARGET: active mouse DPP1 enzyme (Mus musculus (Mouse), UniProt P97821)
# Sequence (P97821 25-134): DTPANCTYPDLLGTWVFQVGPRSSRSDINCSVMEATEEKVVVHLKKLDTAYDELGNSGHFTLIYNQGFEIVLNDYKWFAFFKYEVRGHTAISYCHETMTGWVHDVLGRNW
# Sequence (P97821 231-393): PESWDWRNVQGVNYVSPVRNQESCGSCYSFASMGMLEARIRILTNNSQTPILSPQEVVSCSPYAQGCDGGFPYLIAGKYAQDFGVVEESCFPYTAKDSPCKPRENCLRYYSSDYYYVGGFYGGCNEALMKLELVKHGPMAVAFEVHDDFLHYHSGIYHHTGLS
# Sequence (P97821 394-462): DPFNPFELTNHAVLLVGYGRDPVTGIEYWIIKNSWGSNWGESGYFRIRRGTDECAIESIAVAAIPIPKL
# TEST_DESCRIPTION: Mouse DPP1 Enzyme IC50 Assay
# Format: biochemical
# COND: mouse DPP1 enzyme; Table 16; read-out: IC50, nM; Mouse
IC50 class ranges: lower level = under 90 nM, middle level = from 90 nM up to 800 nM, upper level = 800 nM and over

The following compounds have reported results that may help.
1) Cn1c(=O)oc2ccc(-c3ccc(C[C@@H](C#N)NC(=O)C4C=CCNC4)cc3)cc21 (stereo partly shown) :: upper level
2) C=C1Oc2ccc(-c3ccc(C[C@@H](C#N)NC(=O)C4CC5NCCCC5N4)cc3)cc2N1C (stereo partly shown) :: upper level

INPUT: Class (by measured IC50) for Cn1c(=O)oc2ccc(-c3ccc(CC(C#N)NC(=O)C4CNC4)c(F)c3)cc21 (stereo not shown)
OUTPUT: middle level

INPUT: Lab note: which band did N#Cc1ccc(-c2ccc(C[C@@H](C#N)NC(=O)[C@@H]3CNCCCO3)c(F)c2)cc1 [drawing 1196] land in?
OUTPUT: lower level

INPUT: Which bin, given its IC50, does Cn1c(=O)oc2ccc(-c3ccc(C[C@@H](C#N)NC(=O)C4CCNC4)cc3)cc21 (stereo partly shown) occupy?
OUTPUT: upper level

INPUT: Band assignment needed for Cn1c(=O)oc2ccc(-c3ccc(C[C@@H](C#N)NC(=O)C4CCC(N)C4)cc3)cc21 (stereo partly shown) please.
OUTPUT: upper level

INPUT: Exercise: read the entry Cn1c(=O)oc2ccc(-c3ccc(C[C@@H](C#N)NC(=O)[C@@H]4C[C@@H]5COC[C@@H]5N4)cc3)cc21 [drawing 1208] and state which class it falls under.
OUTPUT: middle level

INPUT: Category lookup for the compound `Cn1c(=O)oc2ccc(-c3ccc(C[C@@H](C#N)NC(=O)C4CNC4)cc3)cc21`
OUTPUT: upper level

INPUT: For the record Cn1c(=O)oc2ccc(-c3ccc(C[C@@H](C#N)NC(=O)[C@@H]4C[C@H]5C[C@H]5N4)cc3)cc21 [drawing 1151] , report the class its IC50 corresponds to.
OUTPUT: lower level

INPUT: Quick check: band for `N#Cc1ccc(-c2ccc(C[C@@H](C#N)NC(=O)[C@@H]3C[C@@H]4COC[C@@H]4N3)s2)cc1`
OUTPUT: middle level

INPUT: Pick a category. Item: Cn1c(=O)oc2ccc(-c3ccc(CC(C#N)NC(=O)[C@H]4CCNC[C@@H]4N)cc3)cc21 (stereo partly shown)
OUTPUT: upper level

INPUT: Dear colleague, I would appreciate it if you could identify the bin for `CO[C@H]1CNC[C@@H](C(=O)N[C@H](C#N)Cc2ccc(-c3ccc4oc(=O)n(C)c4c3)cc2)OC1` and reply at your convenience.
OUTPUT: middle level

INPUT: Which IC50 band matches Cn1c(=O)oc2ccc(-c3ccc(C[C@@H](C#N)NC(=O)C4(N)CCS(=O)(=O)C4)cc3)cc21 (stereo partly shown) ?
OUTPUT: upper level

INPUT: Assign a category based on measured IC50 for Cn1c(=O)oc2ccc(-c3ccc(C[C@@H](C#N)NC(=O)C4CC5CCN4CC5)cc3)cc21 (stereo partly shown) and give only the class name.
OUTPUT: upper level

INPUT: Which IC50 category applies to `CN1COc2ccc(-c3ccc(C[C@@H](C#N)NS(=O)(=O)CCNC4CCCC4)cc3)cc21` here?
OUTPUT: upper level

INPUT: Band for `N#Cc1ccc(-c2ccc(C[C@@H](C#N)NC(=O)[C@@H]3C[C@@H]4CCC[C@@H]4N3)c(F)c2)cc1` ?
OUTPUT: lower level

INPUT: Note: place this compound into its band. Item: `Cn1c(=O)oc2ccc(-c3ccc(C[C@@H](C#N)NC(=O)C4CNC4)s3)cc21`
OUTPUT: upper level

INPUT: Classify this compound: N#Cc1ccc(-c2ccc(C[C@@H](C#N)NC(=O)[C@@H]3CNCCCO3)c(F)c2)cc1 [drawing 1197]
OUTPUT: lower level

INPUT: Just checking, what class would you give `N#Cc1ccc(-c2ccc(C[C@@H](C#N)NC(=O)C3CNC3)s2)cc1` here?
OUTPUT: upper level

INPUT: Lab note: which band did `Cn1c(=O)oc2ccc(-c3ccc(C[C@@H](C#N)NC(=O)[C@@H]4C[C@H]5OCC[C@H]5N4)cc3)cc21` land in?
OUTPUT: upper level

INPUT: Given `N#Cc1ccc(-c2ccc(C[C@@H](C#N)NC(=O)C3CNC3)c(F)c2)cc1` , name the class its IC50 places it in.
OUTPUT: upper level

INPUT: Band for `Cn1c(=O)oc2ccc(-c3ccc(C[C@@H](C#N)NC(=O)[C@@H]4C[C@@H]5CCC[C@@H]5N4)cc3)cc21` ?
OUTPUT: lower level
